This collection of values is drawn from ChEMBL document CHEMBL1125341.

biological target: Mu-type opioid receptor (UniProt P35372); assay: Prewash IC50 ratio obtained by dividing the IC50 of the morphine in presence of the antagonist by the IC50 of the agonist alone in the same tissue preparation against opioid receptor mu in guinea pig ileum; format: functional, tissue-based
Sequence (P35372 whole entry): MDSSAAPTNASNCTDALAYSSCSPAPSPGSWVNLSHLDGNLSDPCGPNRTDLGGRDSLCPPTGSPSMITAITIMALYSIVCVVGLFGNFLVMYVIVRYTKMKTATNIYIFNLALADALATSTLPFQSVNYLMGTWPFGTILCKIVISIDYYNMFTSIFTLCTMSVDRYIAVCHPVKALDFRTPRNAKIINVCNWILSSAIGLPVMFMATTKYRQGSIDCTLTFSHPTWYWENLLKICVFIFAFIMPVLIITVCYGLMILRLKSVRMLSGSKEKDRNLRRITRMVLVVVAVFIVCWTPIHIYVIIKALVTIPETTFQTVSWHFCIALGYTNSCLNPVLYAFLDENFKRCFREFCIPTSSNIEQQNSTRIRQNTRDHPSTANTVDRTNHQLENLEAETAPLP
The reader will find reported Ratio values listed item by item below.
Reply with just the number.

Oc1ccc2c3c1OC1c4[nH]c5ccc(N=C=S)cc5c4CC4(O)C(C2)N(CC2CC2)CCC314 (centres undefined) ... 0.9
Oc1ccc2c3c1OC1c4[nH]c5cccc(N=C=S)c5c4CC4(O)C(C2)N(CC2CC2)CCC314 (centres undefined) ... 0.77
Oc1ccc2c3c1OC1c4[nH]c5cc(N=C=S)ccc5c4CC4(O)C(C2)N(CC2CC2)CCC314 (centres undefined) ... 1.44

-- ask Identify measured Ratio associated with Oc1ccc2c3c1OC1c4[nH]c5c(N=C=S)cccc5c4CC4(O)C(C2)N(CC2CC2)CCC314 (centres undefined)
-- reply 15

* * *

test system: Mus musculus; assay: Compound was tested for antagonistic activity of opioid agonist induced antinociception by using U-50,488H as agonist, administered sc in mice; format: functional
quantity_name: ED50 ratio
Answer as a number with no unit attached.

Here are 3 molecules together with their reported answers.
Oc1ccc2c3c1OC1c4[nH]c5c(N=C=S)cccc5c4CC4(O)C(C2)N(CC2CC2)CCC314 (centres undefined) ... 0.8
Oc1ccc2c3c1OC1c4[nH]c5cccc(N=C=S)c5c4CC4(O)C(C2)N(CC2CC2)CCC314 (centres undefined) ... 1.6
Oc1ccc2c3c1OC1c4[nH]c5cc(N=C=S)ccc5c4CC4(O)C(C2)N(CC2CC2)CCC314 (centres undefined) ... 0.9

Now for the molecule whose ED50 ratio we want.
-- ask Query ED50 ratio for Oc1ccc2c3c1OC1c4[nH]c5ccc(N=C=S)cc5c4CC4(O)C(C2)N(CC2CC2)CCC314 (centres undefined)
-- reply 3.2

* * *

assay: Post wash IC50 ratio obtained by dividing the IC50 of the DADLE in presence of the antagonist by the IC50 of the agonist alone in the same tissue preparation against delta receptor in mouse vas deferens; type: functional
quantity_name: Ratio
Answer using only a numeral; do not append any unit.

Use the examples below as a reference point.
Oc1ccc2c3c1OC1c4[nH]c5cc(N=C=S)ccc5c4CC4(O)C(C2)N(CC2CC2)CCC314 (centres undefined) ... 185
Oc1ccc2c3c1OC1c4[nH]c5c(N=C=S)cccc5c4CC4(O)C(C2)N(CC2CC2)CCC314 (centres undefined) ... 16.1
Oc1ccc2c3c1OC1c4[nH]c5ccc(N=C=S)cc5c4CC4(O)C(C2)N(CC2CC2)CCC314 (centres undefined) ... 7.71

-- ask Determine its reported Ratio: Oc1ccc2c3c1OC1c4[nH]c5cccc(N=C=S)c5c4CC4(O)C(C2)N(CC2CC2)CCC314 (centres undefined)
-- reply 3.71

* * *

Property: Ratio; scope: individual compounds
biological target: Kappa-type opioid receptor (UniProt P41145); test: Prewash IC50 ratio obtained by dividing the IC50 of the ethylketazocine in presence of the antagonist by the IC50 of the agonist alone in the same tissue preparation against opioid receptor kappa in guinea pig ileum; assay type: functional, tissue-based
Sequence (P41145 whole entry): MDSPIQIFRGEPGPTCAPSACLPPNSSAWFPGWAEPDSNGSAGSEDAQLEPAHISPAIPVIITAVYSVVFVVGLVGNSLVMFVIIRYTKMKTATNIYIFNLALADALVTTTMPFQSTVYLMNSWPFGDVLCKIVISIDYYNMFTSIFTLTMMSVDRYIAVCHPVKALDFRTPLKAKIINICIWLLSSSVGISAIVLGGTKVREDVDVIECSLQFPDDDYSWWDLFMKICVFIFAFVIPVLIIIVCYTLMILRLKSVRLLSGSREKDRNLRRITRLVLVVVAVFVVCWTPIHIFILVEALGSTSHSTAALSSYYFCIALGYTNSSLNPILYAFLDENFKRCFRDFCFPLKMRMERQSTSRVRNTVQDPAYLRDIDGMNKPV

Example entries begin here.
Oc1ccc2c3c1OC1c4[nH]c5c(N=C=S)cccc5c4CC4(O)C(C2)N(CC2CC2)CCC314 (centres undefined) ... 0.81
Oc1ccc2c3c1OC1c4[nH]c5cccc(N=C=S)c5c4CC4(O)C(C2)N(CC2CC2)CCC314 (centres undefined) ... 0.51
Oc1ccc2c3c1OC1c4[nH]c5ccc(N=C=S)cc5c4CC4(O)C(C2)N(CC2CC2)CCC314 (centres undefined) ... 0.93

Would you kindly look at the next entry?
-- ask Please report the measured Ratio for Oc1ccc2c3c1OC1c4[nH]c5cc(N=C=S)ccc5c4CC4(O)C(C2)N(CC2CC2)CCC314 (centres undefined)
-- reply 1.04
